IC50 by entry:
- Tested on: HER3ss-Gluc
- assay.overview: HER3ss assay
- Format: cell-based
- test.settings: HEK-293T T-rex cells, transient transfection, doxycycline, 24 h; read-out: HER3 ss IC50
Numbered stars: 1 amine (or outer) side, 2 acyl side, 3 side chain; on linkers, the order of the positions; unused ones are H or OH. Square brackets hold non-standard residues; d marks the D form. Peptide text beside a SMILES is read from it. NMeAla(5-Cl-benzothien-3-yl) = CN[C@@H](Cc1csc2ccc(Cl)cc12)C(=O)O; Butanoyl(2R-oxy,4-CN) = N#CCC[C@@H](O)C(=O)O; Abu(4,4,4-F3) = N[C@@H](CC(F)(F)F)C(=O)O; X12 = O=C([C@H](CC1=CCCC1)N[*:1])[*:2]; NMeL = CN[C@@H](CC(C)C)C(=O)O; NMeA = CN[C@@H](C)C(=O)O
Only the number, expressed in nM, is required.

{"compound": "CC(C)C[C@@H]1NC(=O)[C@H](Cc2csc3ccc(Cl)cc23)N(C)C(=O)[C@H](CC(C)C)NC(=O)[C@H](CC(C)C)N(C)C(=O)[C@H](CC2=CCCC2)NC(=O)[C@@H](CCC#N)OC(=O)[C@H](C)N(C)C1=O [C-98] (cyclo(L[NMeA][Butanoyl(2R-oxy,4-CN)][X12][NMeL]L[NMeAla(5-Cl-benzothien-3-yl)]))", "IC50 / nM": 35}
{"compound": "Cc1cccc(Cn2cc(C[C@H]3C(=O)N[C@@H](CC(C)C)C(=O)N(C)[C@@H](C)C(=O)O[C@H](CCC#N)C(=O)N[C@@H](CC(C)C)C(=O)N(C)[C@@H](CC(C)C)C(=O)N[C@@H](CC(C)C)C(=O)N3C)c3ccccc32)n1 [C-33] (HELM PEPTIDE1{L.[meA].[N#CCC[C@@H](O[*:1])C(=O)[*:2]].L.[meL].L.[Cc1cccc(Cn2cc(C[C@@H](C(=O)[*:2])N(C)[*:1])c3ccccc32)n1]}$PEPTIDE1,PEPTIDE1,1:R1-7:R2$$$V2.0)", "IC50 / nM": 216}

Turning now to a further compound:
Q: Input CC(C)C[C@@H]1NC(=O)[C@H](Cc2csc3ccc(Cl)cc23)N(C)C(=O)[C@H](CC(C)C)NC(=O)[C@H](CC(C)C)N(C)C(=O)[C@H](CC(F)(F)F)NC(=O)[C@@H](CCC#N)OC(=O)[C@H](C)N(C)C1=O [C-67] (cyclo(L[NMeA][Butanoyl(2R-oxy,4-CN)][Abu(4,4,4-F3)][NMeL]L[NMeAla(5-Cl-benzothien-3-yl)])) , output reported IC50.
Ans: 9
